ASSAYED_TARGET: OsWRKY34 (Oryza sativa, UniProt Q0JBA9 1-250)
Sequence (Q0JBA9 entry or part of it): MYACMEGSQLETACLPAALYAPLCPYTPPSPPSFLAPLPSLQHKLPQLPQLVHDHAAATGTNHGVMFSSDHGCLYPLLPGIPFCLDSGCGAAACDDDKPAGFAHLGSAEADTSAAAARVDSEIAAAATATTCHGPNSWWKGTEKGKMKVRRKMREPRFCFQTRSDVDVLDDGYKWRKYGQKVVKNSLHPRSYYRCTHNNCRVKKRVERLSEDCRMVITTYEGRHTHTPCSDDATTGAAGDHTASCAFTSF
EXPERIMENT_DESCRIPTION: protein-binding microarray (RPBM); PBS, 2% BSA, 51.3 ng/ul salmon testes DNA, 50 uM zinc acetate, 200 nM TF, 25 C, 1 h; high values mean tight binding
MEASUREMENT_SETUP: protein: recombinant; tags: N-terminal polyhistidine and DsRed monomer fusion (pET32a); label: CyDye5-dUTP incorporated in the synthesized complementary strand; 3' TTTTT single-stranded linker to array surface; dsDNA, one strand shown
The full ranking holds about 68,000 sequences; the median of “fluorescence intensity (a.u.)” is about 9,100, and the highest 2% start at about 16,000. This is one part of a sample in which the highest values are shown more often than they occur.
REPORTED_METRIC: binding signal

INSERT INTO assay_data (biosequence, reported_metric, result) VALUES
  ('TTTTTAATAGATGACGCCGTTGACTTTTTCTCACATGTTTCGGAGTCACCTAGTGCAG', 'binding signal', '34300 fluorescence intensity (a.u.)'),
  ('GTTTACTCCAAGATTCACATTTGACTTTCTTATGCCATAGCGGAGTCACCTAGTGCAG', 'binding signal', '9170 fluorescence intensity (a.u.)'),
  ('TACTGCCTCTCTCTGACCCCATTGACCAACTCCGTTGACCCGGAGTCACCTAGTGCAG', 'binding signal', '15800 fluorescence intensity (a.u.)'),
  ('TTAATAGATGACGCCGTTGATTTTTTCTCACATGTTTGACCGGAGTCACCTAGTGCAG', 'binding signal', '11600 fluorescence intensity (a.u.)'),
  ('CCGCTCTCCTACTGCTCGGCCAACCAGTCATGCACACATACGGAGTCACCTAGTGCAG', 'binding signal', '8790 fluorescence intensity (a.u.)'),
  ('ATTATATGCTAATTACTTTCTCGTTTTACGTACACCAACTCGGAGTCACCTAGTGCAG', 'binding signal', '8420 fluorescence intensity (a.u.)'),
  ('AGAGACTGGTGATGGACTTTACTCTTTTCTTCTCCAACACCGGAGTCACCTAGTGCAG', 'binding signal', '8330 fluorescence intensity (a.u.)'),
  ('TTTTTAATAGATGACGCTGTTGACTTTTTCCCACATGTTTCGGAGTCACCTAGTGCAG', 'binding signal', '24200 fluorescence intensity (a.u.)'),
  ('ATAGATGACGCCGTTAACTTTTTCTCACATGTTTAACCATCGGAGTCACCTAGTGCAG', 'binding signal', '10200 fluorescence intensity (a.u.)'),
  ('ATTATCCTCTTGTTTTTCAACTGGAATGAACCACCAACAACGGAGTCACCTAGTGCAG', 'binding signal', '9790 fluorescence intensity (a.u.)'),
  ('CCGCGGCCCAATAGCTCTTAGCCCATTGCCATCCGCCATCCGGAGTCACCTAGTGCAG', 'binding signal', '9820 fluorescence intensity (a.u.)'),
  ('TTTGTTTTTTAATAGATGACGCTGTTGACTTTTTCTCACGCGGAGTCACCTAGTGCAG', 'binding signal', '14200 fluorescence intensity (a.u.)'),
  ('GCGAACTCCGAGCGCGGAGGTTGAGGCGGCGGCGAGCGTGCGGAGTCACCTAGTGCAG', 'binding signal', '9820 fluorescence intensity (a.u.)'),
  ('ATTCAGTGGATCCTGCTGCTCAAACTTTGCTGACTGAATTCGGAGTCACCTAGTGCAG', 'binding signal', '8820 fluorescence intensity (a.u.)'),
  ('CTCCGTCCCTCCGTACCAGTTTAAATGCAGCCGTGGATTCCGGAGTCACCTAGTGCAG', 'binding signal', '8360 fluorescence intensity (a.u.)'),
  ('TTAGTACTATTAATTTGGTGGGGTTGGGTGGGTGCTGTAACGGAGTCACCTAGTGCAG', 'binding signal', '16700 fluorescence intensity (a.u.)'),
  ('GCCTTTTTAAATTTTTTTATCACATCAAAACTTTTTTATACGGAGTCACCTAGTGCAG', 'binding signal', '8370 fluorescence intensity (a.u.)'),
  ('CTCCATTTAACAGATGACGTCGTTGACTTTTTCTTACATGCGGAGTCACCTAGTGCAG', 'binding signal', '26900 fluorescence intensity (a.u.)'),
  ('GCGCCCACGAACCTTGTCTTCAAGCAATCCCACACTTCCTCGGAGTCACCTAGTGCAG', 'binding signal', '9490 fluorescence intensity (a.u.)');
